- Tested on: MS2 coat protein
- Experiment: apparent KD of MS2 coat protein; designed switch direction (-1 OFF switch, 1 ON switch): -1; higher = weaker reporter binding
- Condition Summary: input ligand: none
Give measured apparent KD of MS2 coat protein for each item. Keep answers brief.
Answer with a number only, understood to be in nM.

Input: Look up apparent KD of MS2 coat protein for this sequence: UUGUAACAUGAGGAUCACCCAUGUGAGGAUAUGGUUAAGUAAUGUAAUGUAAAGUAAUCCAGAAGGCACAAGUU [1st #23] (Eterna round: R97, puzzle: Exclusion 1)
Output: 78.3

Input: Can you handle GAUCAUGCAGGAUAUACAUGGAUCAUGAAAACAUGGAUUUCACAUGAGGAUCACCCAUGUAGAAGGGCAUGAUC [Omei Ex2 A10] (Eterna round: R97, puzzle: Exclusion 2) next?
Output: 141

Input: Can you handle CAUACGGCAGGAUAUGCGUGGCCAUCUUAGCUCUACCUAAGACAUGAGGAUCACCCAUGUAGAAGGGUUACAUA [Eternabot (Original) Solution 41] (Eterna round: R97, puzzle: Exclusion 2) next?
Output: 19.8

Input: Can you handle UAAACAAGCGAAAGAUCCCACAUGAGGAUCACCCAUGUGCUCGUCUUAUAAGGUACUGUGACGAAAGUCACGGUACC [Sensor 3, v1 - 91 v19] (Eterna round: R97, puzzle: Sensor, turn-off variant 1) next?
Output: 41

Input: Can you handle UUUAAUUGUGACAUGGGUGACAUGAGGAUCACCCAUGUCACAAGCUUUUUGUUCGUCUUAUAAUUAACCCAUGUCAC [Stov1/13-B1] (Eterna round: R97, puzzle: Sensor, turn-off variant 1) next?
Output: 123

###

Give measured apparent KD of MS2 coat protein for each item. Keep answers brief.
- Tested on: MS2 coat protein
- Experiment: apparent KD of MS2 coat protein, switch ON state; designed switch direction (-1 OFF switch, 1 ON switch): -1; higher = weaker reporter binding
- Condition Summary: FMN input: 0 or 200 uM; Eterna round: R93 (includes R88 designs)
Answer with a number only, understood to be in nM.

Input: Please state recorded apparent KD of MS2 coat protein (tested on MS2 coat protein) of AACGUACAUGAGGAUCACCCAUGUUAGGAUAUAUAUACAGGAAAACAUUCUAAUGUAAAUAGAAGGAACGAAAA [Bilbo Confounded 21 - Jieux - Exclusion 1]
Output: 17.1

Input: Can you handle UAGAACCUAGGAUAUACUUGGGAAACUAAUGCAAAGAUAUAACAUGAGGAUCACCCAUGUAGAAGGAGGAGUAA [JR_Exc002_Sub019] next?
Output: 84.5

Input: Can you handle AAAACGUGAGGAUAUGCACCAAAAAAGAAAAAACGGGUACGACAUGAGGAUCACCCAUGUAGAAGGCACGAAAA [Frodo Flailing 8 - Jieux - Exclusion 2] next?
Output: 35.3

###

- Tested on: MS2 coat protein
- Experiment: apparent KD of MS2 coat protein; designed switch direction (-1 OFF switch, 1 ON switch): -1; higher = weaker reporter binding
- Condition Summary: input ligand: FMN 200 uM
Readout: apparent KD of MS2 coat protein (nM)
Answer with a number only, understood to be in nM.

Input: Look up apparent KD of MS2 coat protein for this sequence: AAUACAAGCUAUUGAUCCCACAUGAGGAUCACCCAUGUAUAUGGCGGUGACACCUCCAUGACGAUAGCUCGUCUUAU [Sensor-V1 #58] (Eterna round: R97, puzzle: Sensor, turn-off variant 1)
Output: 567

Input: Can you handle UUAAUGAUUGUGAGGAUAUUUCAUAGAUAGAUAUUAGAGAAGGUACAUGAGGAUCACCCAUGUGUGAUUAGAGA [Brourd's EX4 #71] (Eterna round: R97, puzzle: Brourd's mod of Exclusion 4) next?
Output: 89.7

Input: Can you handle CAGUACUGAGGAUAUACAUGAGGAUCACCCAUGUGUUCCAGCUAGGAUACUAGCAAAGGAAGAAGGCAGUACUG [Mat - Exclusion 3 - Eli Mod - D2] (Eterna round: R97, puzzle: Exclusion 3) next?
Output: 19.4

Input: Can you handle GAACUGAAGCAAAGCUUUAGUCGUACAUGAGGAUCACCCAUGUAGGAUAUGGUAGGCAAAGCUUACUAGAAGGACAGAGUGAUC [Mat - Exclusion NG 3 - Mod of JL - D70] (Eterna round: R96, puzzle: Exclusion NG 3) next?
Output: 338

###

- System: MS2 coat protein
- Experiment: apparent KD of MS2 coat protein; higher = weaker reporter binding
- Condition Summary: Eterna round: R107; input ligand: arginine 13.2 mM
Give measured apparent KD of MS2 coat protein for each item. Keep answers brief.
Answer with a number only, understood to be in nM.

Input: Look up apparent KD of MS2 coat protein for this sequence: GCGUGGUCUGCGGCCGCCACUCAAGGAGCUACAUAGCUCCUAGACAUGAGGAUCACCCAUGUCGCGAGGACCGGGUAGAUUCUCC [Same State Typptophan B GF10]
Output: 40.2

Input: Can you handle AAUAACAUGAGGAUCACCCAUGUAAAAGAUACCAGAUGCAUGAUGAUCCCUUGGCAGCUUAAAACGCGAUUGGAAACAAUCGCGA [Mat - Same State Theophlline A - Mod of Eli - D13] next?
Output: 46.1

Input: Can you handle GGUUGAUGACAUGAGGAUCACCCAUGUAGGCGAGGACCGGUACGGCCGCCACUCGACAUGAGGAUCACCCAUGUCGGCGUCCGUG next?
Output: 14.3

Input: Can you handle AUGCUUAUCAGAAGGAGCGUCAUUAACAUGAGGAUCACCCAUGUAACAUUGAAUUCGAUGAGACAGGUAGGUCGCUGAAUAGUAA [SS-ArgB27] next?
Output: 28

Input: Can you handle GCGGACAUGAGGAUCACCCAUGUAAAUCCUCGAGGACCGGUACGGCCGCCACUCGAACGAGUGGCGCGCGAGCGCGCGCUCGCGC [aBa] next?
Output: 39.4

Input: Can you handle CACAUGAGGAUCACCCAUGUCUGAACUGAAGGAGCGCUAAACAAGGCAGGUAGGUCGCGGAAUUUUGUGUGCAUAUGCAUAUGGG [9.N] next?
Output: 21.6

Input: Can you handle UAACAUGAGGAUCACCCAUGUUUGAAGGAACGAGGACCGGUACGGCCGCCACUCGACGAGUGGAUGAGAAGUGGGAUUGUGUGCU [Same State Trp A GF8] next?
Output: 14.4

Input: Can you handle CCUUAAUAUAGAAGGAGCGCGCUAACAUGAGGAUCACCCAUGUAAAGGGUUUUGGGCUUAGCGCAGGUAGGUCGCUAUAAGAACC [Arg B Ex t2] next?
Output: 60.1

Input: Can you handle AAGACCAGGAGGUGAUCCUAACUGGUCCAACGAGGACCGGUACGGCCGCCACUCGAAUAAACAUGAGGAUCACCCAUGUAAUAAU [T''-M-T'-T-MS2] next?
Output: 58.7

Input: Can you handle GAUUUUACAAAAGUAAAAUCAGUGGGUGAACGAGGACCGGUACGGCCGCCACUCGGACAUGAGGAUCACCCAUGUCCAUGUGAAA [AstrosExyTryA#21] next?
Output: 17.1

Input: Can you handle AUUGCGAGUGAGUCGUGUAACGAUUCAGAUACCAGGCAUUUCGUUGUCCCUUGGCAGCUGUCUUACAUGAGGAUCACCCAUGUUA [#29 Exclusion-TheophyllineA] next?
Output: 23.8

Input: Can you handle UUAACAUGAGGAUCACCCAUGUUUGAUGAAGGAGCGACCAGAGGGUCAGGUAGGUCGCAUCACAUGAGGAUCACCCAUGUCGCCC [DOUBLE!!! :-D #13] next?
Output: 22.3

Input: Can you handle GGUAUAUAGGCGGCCGCCACUGAUUUUCAUAUAUAUAUAACAUGAGGAUCACCCAUGUAGAUAUACAGGACCGGGCCUAUAUAUU [aaaC] next?
Output: 16.1

Input: Can you handle GAUGAACUAUAUGAUACCAGACAACAUGAGGAUCACCCAUGUGAAAGUCGUCCUCUGCCUGUCCCUUGGCAGCGUAUAGUUUAUC [XTheo B #14] next?
Output: 61.1

Input: Can you handle AUCGUACCUCAUGAUACCAGCAUGUGAUCAUAACAUGAGGAUCACCCAUGUAAUCAGUGAUGCCCUUGGCAGCGUAGUCGAUACA [Same State - Theophylline B (Freestyle 8)] next?
Output: 76.3

Input: Can you handle GGAGCUACGUCGGCCGCCACUAGCGGGUAUUGCGUGUACAUGAGGAUCACCCAUGUAAUACGGCCUAGGACCGGGACGUAGCUCC [Raven] next?
Output: 12.1

Input: Can you handle UCCACAUGAGGAUCACCCAUGUGCCAUGAUACCAGACAUGAAAAUGUCCCUUGGCAGCAUGAGUGAGGCAUCCGAAAGGAUGCCU [Chrlice] next?
Output: 149

Input: Can you handle UUAAUCUUAUAUGAAAACAUAUAAGCAGAAGGAGCGUGAUAAAACACAGGUAGGUCGCUGAAGGGAACAUGAGGAUCACCCAUGU [AstrosSSArgA#4] next?
Output: 22.7

Input: Can you handle GGUUACUCUACGGCCGCCACUGUAAUGUAAAGAUACCUGUACAUGACAUGAGGAUCACCCAUGUACAGGACCGGGUAGUGUAACC [Tryptophan B 17] next?
Output: 144

Input: Can you handle CAGCACAUGAGGAUCACCCAUGUGAGGGAUACCAGCUCAGGCGUGGGCCCUUGGCAGCUCUCUGGCUGACGAAAGUCAGCCUGUG [#20 SameState-TheophyllineA] next?
Output: 14.4

Input: Can you handle ACAUGAGGAUCACCCAUGUAAGAUGCAGAAGGAGCGGGAAAUAACCCAGGUAGGUCGCUGCGGUUUGGAUUAUUGUGUUCGUGAA [#08 Exclusion - Arginine A] next?
Output: 11.6

Input: Can you handle CACAUGAGGAUCACCCAUGUCUGAACUGAAGGAGCGCUAAAUAAGGCAGGUAGGUCGCGGAAUCUUGUGUGCAUAUGCACACGGG [9.T] next?
Output: 18.2

Input: Can you handle UUAUAAGUACCGGUCCUCAGAUCCUCAUGACGAGGACCGGUACGGCCGCCACUCGAAACAUGAGGAUCACCCAUGUAAUAACAUU [Brourdmod19] next?
Output: 18.9

Input: Can you handle AAUGUAUGGCACAUGAGGAUCACCCAUGUGCGAGGACCGGUACGGCCGCCACUCGGUCGUGGGUUCUUAUUACUAUACAUUAAUG [XTryp A #14] next?
Output: 11.4

Origin of the recorded values: the supplement of paper PMC9170038
